# efflux ratio at 2 h, 2 µM annotations
assay: Caco2 permeability test; type: in vitro ADME; details: human, Caco-2 monolayer, pH 7.4
Just the number.

CN1CCN([C@@H]2CCCN(c3cnc(C(N)=O)c(Nc4ccc(C5CCN(CC6CCN(c7ccc(C(=O)N[C@H]8CCC(=O)NC8=O)nc7)CC6)CC5)cc4)n3)C2)C1=O [Control compound 1, reference compound] | 52.5

[in] I would be grateful if you could share the reported efflux ratio at 2 h, 2 µM for CN1CCN([C@@H]2CCCN(c3cnc(C(N)=O)c(Nc4ccc(N5CCC(CN6CCN7c8cc(F)c(C9CCC(=O)NC9=O)cc8CC[C@H]7C6)CC5)cc4)n3)C2)C1=O (stereo partly drawn) .
[out] 2.14

[in] Form field: reported efflux ratio at 2 h, 2 µM of CN1CCN([C@@H]2CCCN(c3nnc(C(N)=O)c(Nc4ccc(N5CCC(CN6CCN7c8cc(F)c(C9CCC(=O)NC9=O)cc8CC[C@@H]7C6)CC5)c(F)c4)n3)C2)C1=O (stereo partly drawn)
[out] 4.97
